FYI, the data here is from patent US20250136606A1.

Entries annotated with measured EC50
target.desc: TRPML3 (Homo sapiens, UniProt Q8TDD5)
Construct: expressed in transfected cells
Sequence (Q8TDD5 whole entry): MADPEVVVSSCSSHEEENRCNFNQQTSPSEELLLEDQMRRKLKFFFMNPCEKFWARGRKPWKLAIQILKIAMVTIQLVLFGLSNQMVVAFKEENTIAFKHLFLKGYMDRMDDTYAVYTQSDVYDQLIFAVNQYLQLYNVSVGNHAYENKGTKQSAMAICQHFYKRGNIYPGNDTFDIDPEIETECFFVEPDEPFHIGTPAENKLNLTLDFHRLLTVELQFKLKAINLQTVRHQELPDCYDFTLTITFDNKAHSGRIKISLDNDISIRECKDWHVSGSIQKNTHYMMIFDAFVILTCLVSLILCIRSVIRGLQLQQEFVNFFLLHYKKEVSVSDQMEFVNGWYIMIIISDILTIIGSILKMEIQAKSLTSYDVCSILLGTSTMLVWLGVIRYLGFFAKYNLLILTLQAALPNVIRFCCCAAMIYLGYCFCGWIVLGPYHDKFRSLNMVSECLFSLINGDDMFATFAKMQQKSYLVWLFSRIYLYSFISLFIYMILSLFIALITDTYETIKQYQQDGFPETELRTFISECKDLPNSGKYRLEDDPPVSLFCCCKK
assay.info: Fluorescent TRPML3 assay (performed as for TRPML1, substituting the TRPML3 subtype)
Format: cell-based
test.parameters: fluorescent calcium assay

Sample answers from the record:
[
  {
    "compound": "COc1cc(-n2cc(C3CC3)c3c(N4CCN(C(=O)OC(C)(C)C)C[C@@H]4C)ncnc32)cc(F)c1F [Compound 301]",
    "EC50": "100 to 500 nM"
  },
  {
    "compound": "C[C@@H]1CN(c2ncnc3c2c(C2CC2)cn3-c2cc(F)cc(Cl)c2)[C@@H](C)CN1C(=O)OC(C)(C)C [Compound 236]",
    "EC50": "< 100 nM"
  },
  {
    "compound": "C[C@H]1CN(C(=O)OC(C)(C)C(F)(F)F)CCN1c1ncnc2c1c(-c1ccccc1)cn2-c1cnn(C)c1 [Compound 183]",
    "EC50": "100 to 500 nM"
  },
  {
    "compound": "C[C@H]1CN(C(=O)OC(C)(C)C(F)(F)F)CCN1c1ncnc2c1c(-c1cnn(C)c1)cn2-c1cc(C#N)ccn1 [Compound 330]",
    "EC50": "< 100 nM"
  },
  {
    "compound": "C[C@H]1CN(C(=O)OC(C)(C)C)CCN1c1ncnc2c1c(C1CC1)cn2-c1nccc(C#N)n1 [Compound 432]",
    "EC50": "< 100 nM"
  },
  {
    "compound": "C[C@H]1CN(C(=O)OC(C)(C)C)CCN1c1ncnc2c1c(N(C)C1CC1)cn2-c1cc(C#N)ccn1 [Compound 442]",
    "EC50": "< 100 nM"
  }
]

Note: attention shifts to another entry.
Return reported EC50; argument: C[C@H]1CN(C(=O)OC(C)(C)C)CCN1c1ncnc2c1c(N1CCCC1)cn2C1CCCC1 [Compound 338] 500 to 2000 nM
